# System Name: T1, VEGF121 (human, UniProt P15692 27-147)
# T1 construct: mature; Immobilized on the biosensor chip via primary amino groups; also called Purified VEGF121
# T1 sequence (looked up): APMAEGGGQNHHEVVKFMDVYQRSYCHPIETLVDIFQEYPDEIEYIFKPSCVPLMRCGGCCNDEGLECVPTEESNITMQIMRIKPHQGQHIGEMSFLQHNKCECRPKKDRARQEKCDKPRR
# Experiment: BIAcore SPR, Fab over immobilized VEGF121
# Description: VEGF₁₂₁ was covalently immobilized on the biosensorchip via primary amino groups. Binding of humanized A4.6.1 Fab variants was measured by flowing solutions of Fab in PBS/0.05% TWEEN 20™ over the chip at a flow rate of 20 μL/min. […] Binding profiles were analyzed by nonlinear regression using a simple monovalent binding model (BIAevaluation software v2.0; Pharmacia).
// boundary case: kon equal to 7000 M⁻¹ s⁻¹ maps to f; strictly smaller maps to t

Query: Lab note: confirm whether the reported kon for this binder is below 7000 M⁻¹ s⁻¹, equality not counting. binder: hu2.6 (Fab, name in Kabat numbering, V domains shown, soluble Fab with human constant domains) VH: EVQLVESGGGLVQPGGSLRLSCAASGYTFTNYGMNWIRQAPGKGLEWVGWINTYTGEPTYAADFKRRTTISLDTSASTVYLQMNSLRAEDTAVYYCAKYPHYYGSSHWYFDVWGQGTLVTVSS VL: DIQLTQSPSSLSASVGDRVTITCSASQDISNYLNWYQQKPGKAPKLLIYFTSSLHSGVPSRFSGSGSGTDFTLTISSLQPEDFATYYCQQYSTVPWTFGQGTKVEIK
Reply: t

Query: I'd appreciate it if you could check whether hu2.2 (Fab, name in Kabat numbering, V domains shown, soluble Fab with human constant domains) VH: EVQLVESGGGLVQPGGSLRLSCAASGYTFTNYGMNWIRQAPGKGLEWVGWINTYTGEPTYAADFKRRFTISRDNSKNTVYLQMNSLRAEDTAVYYCAKYPHYYGSSHWYFDVWGQGTLVTVSS VL: DIQLTQSPSSLSASVGDRVTITCSASQDISNYLNWYQQKPGKAPKLLIYFTSSLHSGVPSRFSGSGSGTDYTLTISSLQPEDFATYYCQQYSTVPWTFGQGTKVEIK has kon smaller than 7000 M⁻¹ s⁻¹.
Reply: t

Query: Below 7000 M⁻¹ s⁻¹ on kon? Entry hu2.10V (Fab, V domains shown, Soluble Fab with human constant domains; also called hu2.10 with mutation VL Leu->Val) VH: EVQLVESGGGLVQPGGSLRLSCAASGYTFTNYGMNWIRQAPGKGLEWVGWINTYTGEPTYAADFKRRFTISLDTSASTVYLQMNSLRAEDTAVYYCAKYPHYYGSSHWYFDVWGQGTLVTVSS VL: DIQMTQSPSSLSASVGDRVTITCSASQDISNYLNWYQQKPGKAPKVLIYFTSSLHSGVPSRFSGSGSGTDYTLTISSLQPEDFATYYCQQYSTVPWTFGQGTKVEIK
Reply: f

Query: Does the reported kon of the following binder sit strictly below 7000 M⁻¹ s⁻¹? hu2.7 (Fab, name in Kabat numbering, V domains shown, soluble Fab with human constant domains) VH: EVQLVESGGGLVQPGGSLRLSCAASGYTFTNYGMNWIRQAPGKGLEWVGWINTYTGEPTYAADFKRRFTISRDNSKNTVYLQMNSLRAEDTAVYYCAKYPHYYGSSHWYFDVWGQGTLVTVSS VL: DIQLTQSPSSLSASVGDRVTITCSASQDISNYLNWYQQKPGKAPKLLIYFTSSLHSGVPSRFSGSGSGTDFTLTISSLQPEDFATYYCQQYSTVPWTFGQGTKVEIK
Reply: t

Query: In the record for chimeric F(ab) (Fab, V domains shown, also called chim-F(ab); A4.6.1 chimera) VH: EIQLVQSGPELKQPGETVRISCKASGYTFTNYGMNWVKQAPGKGLKWMGWINTYTGEPTYAADFKRRFTFSLETSASTAYLQISNLKNDDTATYFCAKYPHYYGSSHWYFDVWGAGTTVTVSS VL: DIQMTQTTSSLSASLGDRVIISCSASQDISNYLNWYQQKPDGTVKVLIYFTSSLHSGVPSRFSGSGSGTDYSLTISNLEPEDIATYYCQQYSTVPWTFGGGTKLEIKR , is kon less than 7000 M⁻¹ s⁻¹?
Reply: f

Query: Identify whether the binder hu2.10 (Fab, V domains shown, Soluble Fab with human constant domains; also called consensus clone hu2.10) VH: EVQLVESGGGLVQPGGSLRLSCAASGYTFTNYGMNWIRQAPGKGLEWVGWINTYTGEPTYAADFKRRFTISLDTSASTVYLQMNSLRAEDTAVYYCAKYPHYYGSSHWYFDVWGQGTLVTVSS VL: DIQMTQSPSSLSASVGDRVTITCSASQDISNYLNWYQQKPGKAPKLLIYFTSSLHSGVPSRFSGSGSGTDYTLTISSLQPEDFATYYCQQYSTVPWTFGQGTKVEIK records kon below 7000 M⁻¹ s⁻¹.
Reply: t
